Origin of the recorded values: paper PMC9516332

# pIC50 per record follows
# System: 134 cancer cell lines
# Assay protocol: Cell viability assay (ATPlite, 72 hours), IC50 on cancer cell line panel
# Condition label: Homo sapiens, SK-N-FI, read-out: IC50 in cell proliferation assay, cell line SK-N-FI
pIC50: −log10 of the molar value.

Sample records with pIC50:
{"Compound": "CC(C)(C)c1nc(-c2cccc(NS(=O)(=O)c3c(F)cccc3F)c2F)c(-c2ccnc(N)n2)s1 [dabrafenib]", "Reported property": "pIC50", "Result": "< 5.00"}
{"Compound": "Cc1cc(Nc2ncnc3ccc(NC4=NC(C)(C)CO4)cc23)ccc1Oc1ccn2ncnc2c1 [tucatinib]", "Reported property": "pIC50", "Result": "< 4.50"}

Shifting focus to the compound that follows.
Prompt: Write pIC50 of COC(=O)N[C@@H](C)CNc1nccc(-c2cn(C(C)C)nc2-c2cc(Cl)cc(NS(C)(=O)=O)c2F)n1 [encorafenib] ; system used: 134 cancer cell lines
Completion: 5.48
